measurement description: folding enthalpy; higher = less favourable; fluorescence melt of hairpins on a sequencing array, two-state fit
experimental setup: sodium 0.088 M
Criterion: folding enthalpy meeting or surpassing -20 kcal/mol. Met: Met. Not met: Not met.

Illustrative cases are given below, each with its answer.
[
  {
    "residue codes": "GATCAACCCTTGATC ((((((...))))))",
    "cat": "Not met"
  },
  {
    "residue codes": "GATCATCGTATGATC ((((((...))))))",
    "cat": "Not met"
  },
  {
    "residue codes": "GTCAAGGCGAAAGCCGAC (((..(((....))))))",
    "cat": "Met"
  }
]

Check this sequence for folding enthalpy at or above -20 kcal/mol: GCGCAGACGAAAGTCCGC (((..(((....))))))
Not met

Quick one: GCTATGCGAAAGCAAGC (((.(((....))))))
Met

Data provenance is the array DNA melting data of Ke et al. (doi:10.1101/2024.01.08.574731).
